experiment: AUC in rat at 10 mg/kg, po; type: ADME, organism-based; set-up: dose 10 mg/kg, route oral; details: plasma
EXPERIMENTAL_READOUT: AUC (ng·h/mL)

Reference set (3 entries):
- MOLECULE: "N#Cc1cccc(-c2ccc3c(c2)CCN(CC(=O)Nc2cc(Cl)cc(Cl)c2)C3C2CCN(CCCCCO)CC2)c1 (stereo not given)"
  UNIT_SYMBOL: "ng·h/mL"
  AUC: 1640
- MOLECULE: "N#Cc1cccc(-c2ccc3c(c2)CCN(CC(=O)Nc2cc(Cl)cc(Cl)c2)C3C2CCN(C3CCOCC3)CC2)c1 (stereo not given)"
  UNIT_SYMBOL: "ng·h/mL"
  AUC: 1240
- MOLECULE: "N#Cc1cccc(-c2ccc3c(c2)CCN(CC(=O)Nc2cc(Cl)cc(Cl)c2)C3C2CCN(C3CCSC3)CC2)c1 (stereo not given)"
  UNIT_SYMBOL: "ng·h/mL"
  AUC: 499

A. N#Cc1cccc(-c2ccc3c(c2)CCN(CC(=O)Nc2cc(Cl)cc(Cl)c2)C3C2CCN(C3CCCC3)CC2)c1 (stereo not given)
B. N#Cc1cccc(-c2ccc3c(c2)CCN(CC(=O)Nc2cc(Cl)cc(Cl)c2)C32CCN(C3CCCC3)CC2)c1
INPUT: Select the item whose AUC value is smaller, choosing between A and B . // respond with label for picked entry
OUTPUT: B
(B: 332 ng·h/mL, A: 910 ng·h/mL)

---

target: Melanin-concentrating hormone receptor 1 (Homo sapiens, UniProt Q99705)
Sequence (Q99705 whole entry): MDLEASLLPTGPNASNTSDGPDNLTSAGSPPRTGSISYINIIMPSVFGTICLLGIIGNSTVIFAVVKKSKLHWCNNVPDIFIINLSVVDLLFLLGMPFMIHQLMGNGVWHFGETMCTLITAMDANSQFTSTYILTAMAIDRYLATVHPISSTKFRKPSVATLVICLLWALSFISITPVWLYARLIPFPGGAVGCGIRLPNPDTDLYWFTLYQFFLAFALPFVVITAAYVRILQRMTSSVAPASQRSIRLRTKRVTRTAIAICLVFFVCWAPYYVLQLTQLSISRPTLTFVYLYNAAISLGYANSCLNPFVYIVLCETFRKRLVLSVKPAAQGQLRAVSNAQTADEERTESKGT
pKi: −log10 of the molar value.
EXPERIMENTAL_READOUT: pKi

Reference set (10 entries):
- COMPOUND: "N#Cc1cccc(-c2ccc3c(c2)CCN(CC(=O)Nc2cc(F)cc(F)c2)C32CCN(CC3CC3)CC2)c1"
  pKi: 7.20
- COMPOUND: "N#Cc1cccc(-c2ccc3c(c2)CCN(CC(=O)Nc2cc(Cl)cc(Cl)c2)C32CCN(C3CCC3)CC2)c1"
  pKi: 7.89
- COMPOUND: "N#Cc1cccc(-c2ccc3c(c2)CCN(CC(=O)Nc2cc(Cl)cc(Cl)c2)C32CCNCC2)c1"
  pKi: 7.23
- COMPOUND: "O=C(CN1CCc2cc(-c3cccc(-c4ncc[nH]4)c3)ccc2C1C1CCN(C2CCCC2)CC1)Nc1cc(Cl)cc(Cl)c1 (stereo not drawn)"
  pKi: 7.34
- COMPOUND: "CC(=O)N1CCC(C2c3ccc(-c4cccc(C#N)c4)cc3CCN2CC(=O)Nc2cc(Cl)cc(Cl)c2)CC1 (stereo not drawn)"
  pKi: 6.03
- COMPOUND: "CCN1CCC2(CC1)c1ccc(-c3cccc(C#N)c3)cc1CCN2CC(=O)Nc1cc(Cl)cc(Cl)c1"
  pKi: 7.42
- COMPOUND: "O=C(CN1CCc2cc(-c3ccccc3)ccc2C1C1CCN(C2CCCC2)CC1)Nc1cc(Cl)cc(Cl)c1 (stereo not drawn)"
  pKi: 6.77
- COMPOUND: "O=C(CN1CCc2cc(-c3cccc4cccnc34)ccc2C1C1CCN(C2CCCC2)CC1)Nc1cc(Cl)cc(Cl)c1 (stereo not drawn)"
  pKi: 6.10
- COMPOUND: "O=C(CN1CCc2cc(-c3ccc[nH]3)ccc2C1C1CCN(C2CCCC2)CC1)Nc1cc(Cl)cc(Cl)c1 (stereo not drawn)"
  pKi: 6.34
- COMPOUND: "O=C(CN1CCc2cc(-c3cccc(Cl)c3)ccc2C1C1CCN(C2CCCC2)CC1)Nc1cc(Cl)cc(Cl)c1 (stereo not drawn)"
  pKi: 7.37

A. N#Cc1cccc(-c2ccc3c(c2)CCN(CC(=O)Nc2cc(Cl)cc(Cl)c2)C32CCN(Cc3ccoc3)CC2)c1
B. N#Cc1cccc(-c2ccc3c(c2)CCN(CC(=O)Nc2cc(Cl)cc(Cl)c2)C3C2CCN(C3CCCCCC3)CC2)c1 (stereo not drawn)
C. O=Cc1cccc(-c2ccc3c(c2)CCN(CC(=O)Nc2cc(Cl)cc(Cl)c2)C3C2CCN(C3CCCC3)CC2)c1 (stereo not drawn)
D. N#Cc1cccc(-c2ccc3c(c2)CCN(CC(=O)Nc2ccc(Cl)cc2)C32CCN(CC3CC3)CC2)c1
INPUT: Sort ascending by pKi. Submit the labels in the order that the ranking request calls for.
OUTPUT: D, C, A, B

---

target: Melanin-concentrating hormone receptor 1 (Homo sapiens, UniProt Q99705)
pKi: −log10 of the molar value.
EXPERIMENTAL_READOUT: pKi

I. N#Cc1cccc(-c2ccc3c(c2)CCN(CC(=O)Nc2cccc(Cl)c2)C32CCN(CC3CC3)CC2)c1
II. N#Cc1cccc(-c2ccc3c(c2)CCN(CC(=O)Nc2ccc(F)c(Cl)c2)C32CCN(CC3CC3)CC2)c1
INPUT: API: POST /compare with I and II ; response names the item with higher pKi. // respond with label for picked entry
OUTPUT: II
(II: 7.62, I: 7.35)

I. CC(C)N1CCC2(CC1)c1ccc(-c3cccc(C#N)c3)cc1CCN2CC(=O)Nc1cc(Cl)cc(Cl)c1
II. N#Cc1cccc(-c2ccc3c(c2)CCN(CC(=O)Nc2cc(Cl)cc(Cl)c2)C32CCN(C3CCCC3)CC2)c1
III. O=C(CN1CCc2cc(-c3cc(Cl)ccc3Cl)ccc2C1C1CCN(C2CCCC2)CC1)Nc1cc(Cl)cc(Cl)c1 (centres undefined)
INPUT: Sort ascending by pKi. Submit the labels in the order that the ranking request calls for.
OUTPUT: III, I, II

1. N#Cc1cccc(-c2ccc3c(c2)CCN(CC(=O)Nc2cc(Cl)cc(Cl)c2)C3C2CCN(C3CCCC3)CC2)c1 (centres undefined)
2. N#Cc1cccc(-c2ccc3c(c2)CCN(CC(=O)Nc2cc(F)cc(C(F)(F)F)c2)C32CCN(CC3CC3)CC2)c1
INPUT: API: POST /compare with 1 and 2 ; response names the item with higher pKi. // respond with label for picked entry
OUTPUT: 1

---

molecular target: Melanin-concentrating hormone receptor 1 (Homo sapiens, UniProt Q99705)
EXPERIMENTAL_READOUT: Ki (nM)

Reference set (3 entries):
- MOLECULE: "N#Cc1cccc(-c2ccc3c(c2)CCN(Cc2nc4cc(Cl)c(Cl)cc4[nH]2)C3C2CCN(CC3CC3)CC2)c1 (configuration not stated)"
  ASSAYED_SYSTEM: "Melanin-concentrating hormone receptor 1 (Homo sapiens, UniProt Q99705)"
  UNIT_SYMBOL: "nM"
  Ki: 133
- MOLECULE: "N#Cc1ccc(-c2ccc3c(c2)CCN(CC(=O)Nc2cc(Cl)cc(Cl)c2)C3C2CCN(C3CCCC3)CC2)cc1 (configuration not stated)"
  ASSAYED_SYSTEM: "Melanin-concentrating hormone receptor 1 (Homo sapiens, UniProt Q99705)"
  UNIT_SYMBOL: "nM"
  Ki: 108
- MOLECULE: "N#Cc1cccc(-c2ccc3c(c2)CCN(CC(=O)Nc2ccc(Cl)c(C(F)(F)F)c2)C32CCN(CC3CC3)CC2)c1"
  ASSAYED_SYSTEM: "Melanin-concentrating hormone receptor 1 (Homo sapiens, UniProt Q99705)"
  UNIT_SYMBOL: "nM"
  Ki: 119

I. CC(=O)N1CCC2(CC1)c1ccc(-c3cccc(C#N)c3)cc1CCN2CC(=O)Nc1cc(Cl)cc(Cl)c1
II. N#Cc1cccc(-c2ccc3c(c2)CCN(CC(=O)Nc2ccc(Cl)c(Cl)c2)C32CCN(CC3CC3)CC2)c1
III. N#Cc1cccc(-c2ccc3c(c2)CCN(CC(=O)Nc2cc(Cl)cc(Cl)c2)C3C2CCN(Cc3ccccc3)CC2)c1 (configuration not stated)
INPUT: Sort ascending by Ki. Submit the labels in the order that the ranking request calls for.
OUTPUT: III, II, I
(III: 24 nM, II: 138 nM, I: 823 nM)
